System Tested: Melanocortin receptor 4 (Homo sapiens)
Sequence (P32245 whole entry): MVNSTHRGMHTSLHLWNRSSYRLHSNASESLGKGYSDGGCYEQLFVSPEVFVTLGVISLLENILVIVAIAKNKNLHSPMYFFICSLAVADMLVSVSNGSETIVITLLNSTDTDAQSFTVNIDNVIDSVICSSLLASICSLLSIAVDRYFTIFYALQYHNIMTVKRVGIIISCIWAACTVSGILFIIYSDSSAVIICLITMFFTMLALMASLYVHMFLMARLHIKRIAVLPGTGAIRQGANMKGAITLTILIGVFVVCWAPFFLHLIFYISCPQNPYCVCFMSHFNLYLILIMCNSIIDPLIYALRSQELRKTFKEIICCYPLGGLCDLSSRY
Protocol: Agonist potency at MC4 receptor
Measurement Kind: EC50 (nM)

Query string: I'd like to know its EC50. The compound in question is "N=C(N)NCCC[C@H]1C[C@@H](OCc2ccccc2)CN1C(=O)[C@H](CC[C@H]1Cc2ccccc2CN1)Cc1ccccc1"
Result string: 142

(a) N=C(N)NCCC[C@H]1C[C@@H](OCc2ccccc2)CN1C(=O)[C@@H](Cc1ccccc1)NC(=O)C1Cc2ccccc2CN1 (single isomer, unassigned)
(b) CNC(=O)[C@H](Cc1ccc2ccccc2c1)NC(=O)[C@H](CCCN=C(N)N)NC(=O)[C@H](CC[C@@H]1Cc2ccccc2CN1)Cc1ccccc1
Query string: Smaller EC50 value, a vs b ? Kindly give the label for the entry you pick.
Result string: a
(a: 22 nM, b: 160 nM)
